- SYSTEM_NAME: UDP-N-acetylmuramate--L-alanine ligase (Escherichia coli (strain K12), UniProt P17952)
- Sequence (P17952 whole entry): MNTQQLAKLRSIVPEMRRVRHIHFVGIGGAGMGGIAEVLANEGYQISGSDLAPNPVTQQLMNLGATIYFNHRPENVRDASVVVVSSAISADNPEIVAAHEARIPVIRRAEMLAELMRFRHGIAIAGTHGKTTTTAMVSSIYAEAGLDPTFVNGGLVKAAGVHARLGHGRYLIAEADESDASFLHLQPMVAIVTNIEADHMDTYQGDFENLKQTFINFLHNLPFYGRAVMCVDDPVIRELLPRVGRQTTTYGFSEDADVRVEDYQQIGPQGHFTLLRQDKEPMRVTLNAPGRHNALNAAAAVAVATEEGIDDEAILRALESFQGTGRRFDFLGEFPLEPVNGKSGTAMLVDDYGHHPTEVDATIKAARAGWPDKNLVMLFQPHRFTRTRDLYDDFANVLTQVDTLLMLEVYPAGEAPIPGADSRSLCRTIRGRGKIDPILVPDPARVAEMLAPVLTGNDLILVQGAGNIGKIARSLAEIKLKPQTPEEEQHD
- PROTOCOL_SUMMARY: E.coli MurC assay
- MEASUREMENT_CONDITIONS: 25 °C
Labelling field: enter fulfilled if recorded IC50 is less than 20 nM. Enter not fulfilled if it equals or exceeds that cut-off.

[[record]]
molecule = "Cn1nc(Nc2nc(N[C@@H](COC(=O)NCCN3CCC(=O)N3)c3ccccc3)nc3n[nH]cc23)cc1C(C)(C)C"
system_name = "UDP-N-acetylmuramate--L-alanine ligase (Escherichia coli (strain K12), UniProt P17952)"
discrete_label = "not fulfilled"

[[record]]
molecule = "CC(C)[C@H](CO)Nc1nc(Nc2cc(C(C)(C)C)n(C)n2)c2c[nH]nc2n1"
system_name = "UDP-N-acetylmuramate--L-alanine ligase (Escherichia coli (strain K12), UniProt P17952)"
discrete_label = "not fulfilled"

[[record]]
molecule = "Cn1nc(Nc2nc(NC(CO)C3CCOCC3)nc3n[nH]cc23)cc1C(C)(C)C (stereo not drawn)"
system_name = "UDP-N-acetylmuramate--L-alanine ligase (Escherichia coli (strain K12), UniProt P17952)"
discrete_label = "not fulfilled"

[[record]]
molecule = "Cn1nc(Nc2nc(N[C@@H](CO)c3ccccc3)nc3n[nH]cc23)cc1C(C)(C)C"
system_name = "UDP-N-acetylmuramate--L-alanine ligase (Escherichia coli (strain K12), UniProt P17952)"
discrete_label = "fulfilled"

[[record]]
molecule = "COc1cc([C@H](CO)Nc2nc(Nc3cc(C(C)(C)C)n(C)n3)c3c[nH]nc3n2)ccn1"
system_name = "UDP-N-acetylmuramate--L-alanine ligase (Escherichia coli (strain K12), UniProt P17952)"
discrete_label = "fulfilled"

[[record]]
molecule = "CN1C(=O)NC[C@H]1CNC(=O)OC[C@H](Nc1nc(Nc2cc(C(C)(C)C)n(C)n2)c2c[nH]nc2n1)c1ccccc1"
system_name = "UDP-N-acetylmuramate--L-alanine ligase (Escherichia coli (strain K12), UniProt P17952)"
discrete_label = "fulfilled"

[[record]]
molecule = "Cn1nc(Nc2nc(N[C@H](CO)c3ccccc3)nc3[nH]ncc23)cc1C(C)(C)C"
system_name = "UDP-N-acetylmuramate--L-alanine ligase (Escherichia coli (strain K12), UniProt P17952)"
discrete_label = "fulfilled"

[[record]]
molecule = "Cn1nc(Nc2nc(N[C@@H](COC(=O)NCCN)c3ccccc3)nc3n[nH]cc23)cc1C(C)(C)C"
system_name = "UDP-N-acetylmuramate--L-alanine ligase (Escherichia coli (strain K12), UniProt P17952)"
discrete_label = "fulfilled"

[[record]]
molecule = "Cn1nc(Nc2nc(N[C@@H](CO)c3ccncc3Cl)nc3n[nH]cc23)cc1C(C)(C)C"
system_name = "UDP-N-acetylmuramate--L-alanine ligase (Escherichia coli (strain K12), UniProt P17952)"
discrete_label = "not fulfilled"

[[record]]
molecule = "Cn1nc(Nc2nc(N[C@@H](COC(=O)NO)c3ccccc3)nc3n[nH]cc23)cc1C(C)(C)C"
system_name = "UDP-N-acetylmuramate--L-alanine ligase (Escherichia coli (strain K12), UniProt P17952)"
discrete_label = "not fulfilled"

[[record]]
molecule = "Cn1nc(Nc2nc(N[C@H](CO)c3cccc(F)c3)nc3n[nH]cc23)cc1C(C)(C)C"
system_name = "UDP-N-acetylmuramate--L-alanine ligase (Escherichia coli (strain K12), UniProt P17952)"
discrete_label = "fulfilled"

[[record]]
molecule = "Cn1nc(Nc2nc(N[C@@H](COC(=O)NCc3cc(=O)c(O)cn3O)c3ccccc3)nc3[nH]ncc23)cc1C(C)(C)C"
system_name = "UDP-N-acetylmuramate--L-alanine ligase (Escherichia coli (strain K12), UniProt P17952)"
discrete_label = "fulfilled"

[[record]]
molecule = "Cn1nc(Nc2nc(N[C@@H](CO)c3ccccn3)nc3n[nH]cc23)cc1C(C)(C)C"
system_name = "UDP-N-acetylmuramate--L-alanine ligase (Escherichia coli (strain K12), UniProt P17952)"
discrete_label = "not fulfilled"

[[record]]
molecule = "Cn1nc(Nc2nc(N[C@@H](COC(=O)N3CCOC(CN)C3)c3ccccc3)nc3n[nH]cc23)cc1C(C)(C)C (stereo partly drawn)"
system_name = "UDP-N-acetylmuramate--L-alanine ligase (Escherichia coli (strain K12), UniProt P17952)"
discrete_label = "fulfilled"

[[record]]
molecule = "COc1ccc([C@H](CO)Nc2nc(Nc3cc(C(C)(C)C)n(C)n3)c3c[nH]nc3n2)cc1"
system_name = "UDP-N-acetylmuramate--L-alanine ligase (Escherichia coli (strain K12), UniProt P17952)"
discrete_label = "not fulfilled"

[[record]]
molecule = "Cc1cc([C@H](CO)Nc2nc(Nc3cc(C(C)(C)C)n(C)n3)c3c[nH]nc3n2)on1"
system_name = "UDP-N-acetylmuramate--L-alanine ligase (Escherichia coli (strain K12), UniProt P17952)"
discrete_label = "not fulfilled"

[[record]]
molecule = "Cn1nc(Nc2nc(N[C@@H](COC(=O)NCCO)c3ccccc3)nc3n[nH]cc23)cc1C(C)(C)C"
system_name = "UDP-N-acetylmuramate--L-alanine ligase (Escherichia coli (strain K12), UniProt P17952)"
discrete_label = "fulfilled"

[[record]]
molecule = "Cn1nc(Nc2nc(N[C@@H]3c4ccccc4C[C@@H]3O)nc3n[nH]cc23)cc1C(C)(C)C"
system_name = "UDP-N-acetylmuramate--L-alanine ligase (Escherichia coli (strain K12), UniProt P17952)"
discrete_label = "fulfilled"


Attribution: BindingDB's records for doi:10.1021/cb500360c
